Origin of measurements: the supplement of paper PMC10338343

Tested on: MILI (PIWIL2) piRISC loaded with L1MC piRNA (26 nt);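 also: 1 nM active piRISC with 0.1 nM target library at 33 °C single turnover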
Test: pre-steady-state target cleavage rate (min^-1); guide: L1MC piRNA 5'p-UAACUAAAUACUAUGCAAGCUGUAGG; MIWI and MILI are mouse PIWI proteins and EfPiwi is from a freshwater sponge; tags in brackets are library labels; higher = faster piRNA-guided slicing of the target
Conditions: auxiliary factor: 500 nM mouse GTSF1

[
  {
    "chain": "UCCUCCUACAGCUUGCAUUGUAUUUACAAA",
    "pre-steady-state target cleavage rate": 0.0269
  },
  {
    "chain": "UCCUGGAUGAGGAUGCAUAGUAUUUAGUUA",
    "pre-steady-state target cleavage rate": 0.103
  },
  {
    "chain": "UCCUGGAUGUGCUUGCAUUGUAUUUAGUAA",
    "pre-steady-state target cleavage rate": 0.0856
  },
  {
    "chain": "UCCUGGAUCAGCUUGCAUAGUAUUAUGUUA",
    "pre-steady-state target cleavage rate": 0.122
  },
  {
    "chain": "UCCUCCUUCACCUUGCAUAGUAUUUAGUUA",
    "pre-steady-state target cleavage rate": 0.212
  },
  {
    "chain": "UCCUGCAACAGCUUGCAUAGUAUUUAGUAA",
    "pre-steady-state target cleavage rate": 0.333
  },
  {
    "chain": "UCCUGGAUGAGCUUGGAUAGUAUUUAGAUA",
    "pre-steady-state target cleavage rate": 0.0187
  },
  {
    "chain": "UCCUGGUACUGGUUGCAUAGUAUUUAGUUA",
    "pre-steady-state target cleavage rate": 0.162
  },
  {
    "chain": "UCCUGGAUGUCCUUGCAUAGUAUUCAGUUA",
    "pre-steady-state target cleavage rate": 0.0755
  },
  {
    "chain": "UCCUGGAACAGCUUGCAUACUAUUUAGAUA",
    "pre-steady-state target cleavage rate": 0.013
  },
  {
    "chain": "UCCUGGAUCAGCUUGCUUAGUAUUUACUUA",
    "pre-steady-state target cleavage rate": 0.203
  },
  {
    "chain": "UCCUGCUACAGCAUCCAUAGUAUUUAGUUA",
    "pre-steady-state target cleavage rate": 0.195
  },
  {
    "chain": "UCCUGCUACAGCUUGGUAAGUAUUUAGUUA",
    "pre-steady-state target cleavage rate": 0.131
  }
]
